# Test system: SF-539
# measurementProtocol: NCI tumour cell line growth inhibition, 48 h
Activity calls are given as the source filed them. No stated cut-off is given here; in the data, active = GI50 up to about 1.1 µM and inactive = higher.
Outcomes: active, inactive

{"columns": ["compound", "groupLabel"],
 "data": [
  ["COc1cccc(OCC(=N/NC(=O)c2ccncc2)/N=C/c2ccncc2)c1", "inactive"],
  ["Cc1c2c(c(O)c3c(O)cccc13)C(=O)C1(O)C(=O)C(C(=O)NCNc3ccc(C(N)=O)cn3)=C(O)C(N(C)C)C1C2 (configuration not stated)", "inactive"],
  ["c1ccc(C(=NNc2nc3ccccc3o2)c2ccccn2)nc1", "active"],
  ["CCOP(=O)(OCC)/C(C#N)=C/c1ncc[nH]1", "inactive"],
  ["COC(=O)c1ccc(C)cc1C1CN=NC12Cc1cccc(C)c1C2=O (configuration not stated)", "inactive"],
  ["COc1ccc(/C=C2\\N/C(=N\\N=C/C(O)C(O)C(O)C(O)CO)NC2=O)cc1 (configuration not stated)", "inactive"],
  ["CC1(C)SCc2nc3ncccc3n21", "inactive"],
  ["CC(=O)N1c2ccccc2C23CCN(C)CC4C(C)OCC(C4CC2=O)C13 (configuration not stated)", "inactive"],
  ["Cc1nsc2cc(Cl)n(C)c(=O)c12", "inactive"],
  ["CC(=O)c1c2c(cc3c1CC1(Cc4cc5c(cc4C1)C(=O)CCC5)C3)CCCC2 (configuration not stated)", "inactive"],
  ["CCCCC1Cc2ccccc2-c2n1c1ccccc1[n+]2C (configuration not stated)", "inactive"],
  ["O[C@H]1[C@H]2[C@H](O)C[C@H](CCOCc3ccccc3)CN2C[C@H]1O", "inactive"],
  ["COc1cc(NC=C2C(=O)OC(C)(C)OC2=O)c(OC)c(C)c1OC", "inactive"],
  ["O=C1c2ccccc2NC(=O)C2C1C(c1ccccc1)CC2(O)c1ccccc1 (configuration not stated)", "inactive"],
  ["CC(O)CCC(=O)c1ccoc1 (configuration not stated)", "inactive"],
  ["CCn1c(=O)c2cn[nH]c2n(C)c1=O", "inactive"],
  ["C[C@]12CCC[C@H](O)[C@H]1C[C@H](CO)CC2", "inactive"],
  ["O=C(NNC(=O)c1ccccc1SSc1ccccc1C(=O)NNC(=O)c1ccccc1S)c1ccccc1S", "inactive"],
  ["C=CCc1cc2cccc(OC)c2oc1=O", "inactive"],
  ["COc1ccc(/C=C/C(=O)c2sc(NC(=S)NC(=O)c3ccccc3F)nc2C)cc1OC", "inactive"],
  ["c1ccc2c(C3NCCc4nc[nH]c43)cccc2c1 (configuration not stated)", "inactive"],
  ["COc1cc(N(CCC#N)CCC#N)ccc1/C=C1\\SC(=S)NC1=O", "inactive"],
  ["Cc1n(Cc2ccccc2)c2c([n+]1C)C(=O)c1ccccc1C2=O", "active"],
  ["Clc1ccc(C2NN=C3c4ccccc4OCC32)cc1 (configuration not stated)", "inactive"],
  ["O=C(Nc1nnc(-c2c(Cl)c(Cl)c(Cl)c(Cl)c2-c2nc3cc(C(=O)c4ccccc4)ccc3[nH]2)o1)c1ccccc1", "inactive"],
  ["COc1ccc2c(c1)/C(=C\\c1c(Cl)nc3sc(C)cn13)C(=O)N2", "inactive"],
  ["CCn1c(-c2ccccc2)nc2c1C(=O)c1ccccc1C2=O", "inactive"]
]}
